- Tested on: Flo-1 cells
- Experimental Protocol: Epigenetic compound library screen (CellTiter-Glo, 72 h)
- Assay type: cell-based, human
- Stated Conditions: Homo sapiens, Flo-1, 6μM, read-out: % cell killing /control
- Method: We tested a 163 compound epigenetic library that consists of inhibitors and activators of epigenetic modifying enzymes (writers, erasers and readers). All compounds were dissolved in 100% DMSO and tested in duplicate at a nominal test concentration of 6μM. Wells with assay buffer containing DMSO served as negative controls. […] After 72 hours of treatment, cell viability was assessed by measuring ATP levels via bioluminescence (CellTiter-Glo, Promega). […]
Where a SMILES comes first, the peptide text is derived from it. [ ]: non-standard residue; d: D form. ξ: configuration not given here. Aoe(9ξ) = N[C@@H](CCCCCC(=O)C1CO1)C(=O)O; dPip = O=C(O)[C@H]1CCCCN1
Readout Name: cytotoxicity at 6 µM (%)

>>> quantitative_readout("O=C(/C=C/c1ccc(CN(CCO)CCc2c[nH]c3ccccc23)cc1)NO")
96.8
>>> quantitative_readout("O=C(/C=C/c1cccc(S(=O)(=O)Nc2ccccc2)c1)NO")
77.6
>>> quantitative_readout("O=C(CCCCC[C@@H]1NC(=O)[C@H]2CCCCN2C(=O)[C@H](Cc2ccccc2)NC(=O)[C@H](Cc2ccccc2)NC1=O)C1CO1 (some centres unmarked) [Trapoxin A] (cyclo(FF[dPip][Aoe(9ξ)]))")
96.4
>>> quantitative_readout("CCN(CC)Cc1ccc2cc(COC(=O)Nc3ccc(C(=O)NO)cc3)ccc2c1")
90.9
>>> quantitative_readout("CC(C)[C@H](C(=O)Nc1ccc(C(=O)NO)cc1)c1ccccc1 [(S)-HDAC-42]")
84.6
>>> quantitative_readout("CC[C@@H]1C(=O)N(C)c2cnc(Nc3ccc(C(=O)NC4CCN(C)CC4)cc3OC)nc2N1C1CCCC1")
95.9
>>> quantitative_readout("CC1(C)CCC2=C(O1)c1ccccc1C(=O)C2=O")
40.9
>>> quantitative_readout("O=C(CCCCCN1C(=O)c2cccc3cccc(c23)C1=O)NO")
32.5
>>> quantitative_readout("CCCCc1nc2cc(/C=C/C(=O)NO)ccc2n1CCN(CC)CC")
78.8
>>> quantitative_readout("Nc1ccccc1NC(=O)c1ccc(CNC(=O)OCc2cccnc2)cc1")
43.3
>>> quantitative_readout("COc1ccc(-c2nc(N3CCOCC3)c3sc(CN(C)c4ncc(C(=O)NO)cn4)cc3n2)cn1")
99.7

---

- System: SK-GT2 cells
- Experimental Protocol: FDA library drug sensitivity testing (CellTiter-Glo, 72 h)
- Type: cell-based, human
- Stated Conditions: SK-GT2; sDSSmod = DSSmod (patient cells) - DSSmod (normal cells)
Some compounds, each annotated with its measured sDSSmod.
Readout Name: sDSSmod

>>> result("CC(C)c1nc(CN(C)C(=O)N[C@@H](CCN2CCOCC2)C(=O)N[C@H](CC[C@H](Cc2ccccc2)NC(=O)OCc2cncs2)Cc2ccccc2)cs1 [Cobicistat]")
7.685
>>> result("CC[C@]1(O)C[C@H]2CN(CCc3c([nH]c4ccccc34)[C@@](C(=O)OC)(c3cc4c(cc3OC)N(C=O)[C@H]3[C@@](O)(C(=O)OC)[C@H](OC(C)=O)[C@]5(CC)C=CCN6CC[C@]43[C@@H]65)C2)C1")
-7.21
>>> result("CCc1c2c(nc3ccc(OC(=O)N4CCC(N5CCCCC5)CC4)cc13)-c1cc3c(c(=O)n1C2)COC(=O)[C@]3(O)CC.Cl.O.O.O [Irinotecan HCl Trihydrate]")
-7.5553
>>> result("CO[C@H]1C[C@@H]2CC[C@@H](C)[C@@](O)(O2)C(=O)C(=O)N2CCCC[C@H]2C(=O)O[C@H]([C@H](C)C[C@@H]2CC[C@@H](OC(=O)C(C)(CO)CO)[C@H](OC)C2)CC(=O)[C@H](C)/C=C(\\C)[C@@H](O)[C@@H](OC)C(=O)[C@H](C)C[C@H](C)/C=C/C=C/C=C/1C")
-11.9329
>>> result("CCc1c2c(nc3ccc(OC(=O)N4CCC(N5CCCCC5)CC4)cc13)-c1cc3c(c(=O)n1C2)COC(=O)[C@]3(O)CC")
-5.574
>>> result("Cc1cn(-c2cc(NC(=O)c3ccc(C)c(Nc4nccc(-c5cccnc5)n4)c3)cc(C(F)(F)F)c2)cn1")
27.22
>>> result("C[C@H](NC(=O)Cc1cc(F)cc(F)c1)C(=O)N[C@H](C(=O)OC(C)(C)C)c1ccccc1")
13.54
>>> result("CC(C)C[C@H](NC(=O)[C@H](Cc1ccccc1)NC(=O)c1cnccn1)B(O)O")
-35.5649
>>> result("CO[C@H]1C[C@@H]2CC[C@@H](C)[C@@](O)(O2)C(=O)C(=O)N2CCCC[C@H]2C(=O)O[C@H]([C@H](C)C[C@@H]2CC[C@@H](OCCO)[C@H](OC)C2)CC(=O)[C@H](C)/C=C(\\C)[C@@H](O)[C@@H](OC)C(=O)[C@H](C)C[C@H](C)/C=C/C=C/C=C/1C")
-5.054
>>> result("CC(=O)O[C@H]1C(=O)[C@@]2(C)[C@H]([C@H](OC(=O)c3ccccc3)[C@]3(O)C[C@H](OC(=O)[C@H](O)[C@@H](NC(=O)c4ccccc4)c4ccccc4)C(C)=C1C3(C)C)[C@]1(OC(C)=O)CO[C@@H]1C[C@@H]2O")
12.8

---

- Test system: normal esophageal epithelium cell line EACN42
- Experimental Protocol: FDA library drug sensitivity testing (CellTiter-Glo, 72 h), normal control cells
- Assay type: cell-based, human
- Stated Conditions: Homo sapiens, 72 h, EACN42 normal esophageal cells, cell viability (ATP), max test concentration 10μM
pEC50: −log10 of the molar value.
Some molecules, each annotated with its measured pEC50.
Readout Name: pEC50

>>> quantitative_readout("CC(C)(C#N)c1cc(Cn2cncn2)cc(C(C)(C)C#N)c1")
5.80
>>> quantitative_readout("NC(=O)c1ncn([C@@H]2O[C@H](CO)[C@@H](O)[C@H]2O)c1O")
8.22
>>> quantitative_readout("C=C(c1ccc(C(=O)O)cc1)c1cc2c(cc1C)C(C)(C)CCC2(C)C")
5.37
>>> quantitative_readout("Nc1nc(CC(=O)Nc2ccc(CCNC[C@H](O)c3ccccc3)cc2)cs1")
7.70

---

- Tested on: SK-GT2 cells
- Experimental Protocol: FDA library drug sensitivity testing (CellTiter-Glo, 72 h)
- Format: cell-based, human
- Stated Conditions: SK-GT2; sDSSmod = DSSmod (patient cells) - DSSmod (normal cells)
Some compounds, each annotated with its measured sDSSmod.
Readout Name: sDSSmod

>>> result("Nc1nc(F)nc2c1ncn2[C@@H]1O[C@H](COP(=O)(O)O)[C@@H](O)[C@@H]1O")
-12.9068
>>> result("[Na+].[Na+].[Na+].[O]=[V]([O-])([O-])[O-] [Sodium orthovanadate]")
23.66
>>> result("CCC(C)(C)C(=O)O[C@H]1C[C@@H](C)C=C2C=C[C@H](C)[C@H](CC[C@@H]3C[C@@H](O)CC(=O)O3)[C@H]21")
-5.66
>>> result("CO[C@H]1C[C@@H]2CC[C@@H](C)[C@@](O)(O2)C(=O)C(=O)N2CCCC[C@H]2C(=O)O[C@H]([C@H](C)C[C@@H]2CC[C@@H](O)[C@H](OC)C2)CC(=O)[C@H](C)/C=C(\\C)[C@@H](O)[C@@H](OC)C(=O)[C@H](C)C[C@H](C)/C=C/C=C/C=C/1C")
-11.012
>>> result("CC[C@@]1(O)C(=O)OCc2c1cc1n(c2=O)Cc2cc3ccccc3nc2-1")
-11.3049
>>> result("C/C=C(\\C)C(=O)N[C@@H](c1ccccc1)[C@@H](O)C(=O)O[C@H]1C[C@@]2(O)[C@@H](OC(=O)c3ccccc3)[C@@H]3[C@]4(OC(C)=O)CO[C@@H]4C[C@H](O)[C@@]3(C)C(=O)[C@H](OC(C)=O)C(=C1C)C2(C)C")
21.46
>>> result("C#Cc1cccc(Nc2ncnc3cc(OCCOC)c(OCCO)cc23)c1.Cl")
11.77
>>> result("CCN(CC)C(=S)SSC(=S)N(CC)CC")
10.36

---

- Tested on: normal esophageal epithelium cell line EACN42
- Experimental Protocol: FDA library drug sensitivity testing (CellTiter-Glo, 72 h), normal control cells
- Format: cell-based, human
- Stated Conditions: Homo sapiens, 72 h, EACN42 normal esophageal cells, cell viability (ATP), max test concentration 10μM
pEC50: −log10 of the molar value.
# criterion met = pEC50 below 6 (exclusive); criterion not met = pEC50 at/above 6

>>> assigned_label("CC#CCn1c(N2CCC[C@@H](N)C2)nc2c1c(=O)n(Cc1nc(C)c3ccccc3n1)c(=O)n2C")
"criterion not met"
>>> assigned_label("COc1cc2c(Nc3ccc(Br)cc3F)ncnc2cc1OCC1CCN(C)CC1")
"criterion met"
>>> assigned_label("CC(C)C[C@H](NC(=O)[C@H](CCc1ccccc1)NC(=O)CN1CCOCC1)C(=O)N[C@@H](Cc1ccccc1)C(=O)N[C@@H](CC(C)C)C(=O)[C@@]1(C)CO1")
"criterion not met"
>>> assigned_label("CC[C@@H]1/C=C(\\C)C[C@H](C)C[C@H](OC)[C@H]2O[C@@](O)(C(=O)C(=O)N3CCCC[C@H]3C(=O)O[C@H](/C(C)=C/[C@@H]3CC[C@H](Cl)[C@H](OC)C3)[C@H](C)[C@@H](O)CC1=O)[C@H](C)C[C@@H]2OC")
"criterion met"
>>> assigned_label("Cc1nc(-c2ccc(OCC(C)C)c(C#N)c2)sc1C(=O)O")
"criterion met"
